molecular target: Autotaxin (Homo sapiens); test: Inhibition of ATX in human plasma assessed as decrease in hydrolysis of lysophosphatidylcholine by measuring choline release after 24 hrs by horseradish peroxidase/choline oxidase-coupled assay; assay type: cell-free
Sorting guide: entries reporting IC50 beneath 8000 nM go in the yes pile, the rest go in the no pile.

C[C@H](NC(=O)CCc1nc2ccncc2n1Cc1ccc(F)cc1)c1ccc(F)cc1
yes

We next turn to a different compound, shown below.
Does the reported IC50 of COc1ccc(Cn2c(CCC(=O)N[C@@H](C)c3ccccc3)nc3cccnc32)cc1 stay below 8000 nM? yes

----------
assay: AUC in Balb-c nu/nu mouse at 100 mg/kg, po measured up to 7 hrs by UPLC/MS/MS spectrometry analysis; assay type: ADME, organism-based; design: dose 100 mg/kg, time < 7 hr, route oral; details: in vivo
Readout label: AUC at 7 h (µM·h)
Numbers only, in µM·h.

Which value of AUC at 7 h has been reported for C[C@H](NC(=O)CCc1nc2cccnc2n1Cc1ccc(OC(F)(F)F)cc1)c1ccc(Cl)cc1 [CAMBRITAXESTAT] in the records? 59.3

Values were extracted from ChEMBL document CHEMBL3864162.
